# EC50, smooth muscle contraction of human umbilical artery values compiled below
- tested.on: T1, C5a receptor (C5aR) expressed on the surface of human PMNs (human, UniProt P21730 1-350)
- T1 sequence (looked up): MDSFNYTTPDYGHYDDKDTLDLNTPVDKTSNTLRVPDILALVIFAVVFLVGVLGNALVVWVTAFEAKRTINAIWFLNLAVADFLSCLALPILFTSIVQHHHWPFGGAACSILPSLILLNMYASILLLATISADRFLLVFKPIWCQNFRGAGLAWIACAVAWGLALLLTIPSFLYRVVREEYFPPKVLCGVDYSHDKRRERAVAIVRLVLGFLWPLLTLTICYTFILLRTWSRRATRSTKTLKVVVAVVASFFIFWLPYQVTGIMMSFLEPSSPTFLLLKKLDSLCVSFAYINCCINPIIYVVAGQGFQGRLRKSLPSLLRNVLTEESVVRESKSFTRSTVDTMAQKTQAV
- experimental.protocol: cell-based or functional assay
Where no end group is shown, it is not given here. [ ]: non-standard residue; d: D form.
assay.readout: EC50, smooth muscle contraction of human umbilical artery (µM)

binder	meas.value
IPQSLDSWWTSLYSFKPMPL[dA]R (Synthetic peptide; also called C5a-active construct without linker) [IPQSLDSWWTSLYSFKPMPLaR (HBsAg CTL epitope attached directly to N-terminus of the C5a agonist)]	0.21
IPQSLDSWWTSLRRYSFKPMPL[dA]RG (Synthetic peptide)	6.78
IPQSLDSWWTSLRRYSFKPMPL[dA]R (Synthetic peptide; also called RR-containing construct) [IPQSLDSWWTSLRRYSFKPMPLaR (double-Arg-linked C5a-active construct)]	0.161
YSFKPMPL[dA]RRRIPQSLDSWWTSL (Synthetic peptide) [YSFKPMPLa[…] (C5a-inactive construct, C-terminus of agonist blocked by the HBsAg CTL epitope)]	39.4
natural C5a (ligand, UniProt P01031 678-751, looked up, 125I label on the tracer form used in the competition assay, C5a is only a fragment of it) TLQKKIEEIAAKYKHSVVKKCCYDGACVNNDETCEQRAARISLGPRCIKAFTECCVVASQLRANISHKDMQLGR	0.002
IPQSLDSWWTSLRVRRYSFKPMPL[dA]R (Synthetic peptide; also called RVRR-containing construct) [IPQSLDSWWTSLRVRRYSFKPMPLaR (RVRR furin-sensitive-linked C5a-active construct)]	0.18
YSFKPMPL[dA]R (Synthetic peptide; also called C5a agonist; peptide (2)) [C5a C-terminal decapeptide agonist analog YSFKPMPLaR]	0.01
